# ASSAY SYSTEM: PttCesA8 (Populus tremula x Populus tremuloides, UniProt Q6J8X0)
# Sequence (Q6J8X0 1-978): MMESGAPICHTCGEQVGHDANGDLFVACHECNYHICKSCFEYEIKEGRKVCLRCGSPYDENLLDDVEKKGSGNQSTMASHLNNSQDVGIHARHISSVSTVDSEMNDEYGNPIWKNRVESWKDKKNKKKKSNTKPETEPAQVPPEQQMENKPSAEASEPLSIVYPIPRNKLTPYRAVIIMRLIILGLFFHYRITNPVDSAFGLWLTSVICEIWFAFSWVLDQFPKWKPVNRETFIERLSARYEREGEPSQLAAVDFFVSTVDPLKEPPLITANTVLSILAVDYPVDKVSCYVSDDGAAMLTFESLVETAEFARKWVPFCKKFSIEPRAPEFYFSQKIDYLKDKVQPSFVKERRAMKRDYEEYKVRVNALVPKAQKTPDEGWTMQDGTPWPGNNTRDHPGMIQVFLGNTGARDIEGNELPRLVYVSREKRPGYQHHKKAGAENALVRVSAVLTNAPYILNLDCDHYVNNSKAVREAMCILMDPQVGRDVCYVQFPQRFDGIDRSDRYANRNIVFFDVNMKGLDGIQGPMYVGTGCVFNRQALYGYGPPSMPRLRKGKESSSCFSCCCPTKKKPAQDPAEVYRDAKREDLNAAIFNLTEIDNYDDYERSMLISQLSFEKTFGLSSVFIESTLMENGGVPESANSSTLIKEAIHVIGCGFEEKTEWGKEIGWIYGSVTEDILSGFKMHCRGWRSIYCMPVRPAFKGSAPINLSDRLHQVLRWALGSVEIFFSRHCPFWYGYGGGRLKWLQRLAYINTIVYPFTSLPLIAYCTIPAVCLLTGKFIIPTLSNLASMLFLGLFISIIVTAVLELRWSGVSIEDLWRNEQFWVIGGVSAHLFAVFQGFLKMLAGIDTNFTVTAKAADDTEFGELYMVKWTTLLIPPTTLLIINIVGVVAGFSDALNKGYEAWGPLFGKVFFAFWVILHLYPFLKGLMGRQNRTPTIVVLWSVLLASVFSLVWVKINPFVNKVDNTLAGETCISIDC
MEASURE NAME: pKi
Scale: negative log10 of molar concentration, which is what pKi denotes.

query: Please report the measured pKi for O=c1ccn([C@@H]2O[C@H](COP(=O)(O)OP(=O)(O)O)[C@@H](O)[C@H]2O)c(=O)[nH]1 [UDP]
result: 5.00

---

# ASSAY SYSTEM: SeHas (Streptococcus dysgalactiae)
# Sequence (O50201 1-417): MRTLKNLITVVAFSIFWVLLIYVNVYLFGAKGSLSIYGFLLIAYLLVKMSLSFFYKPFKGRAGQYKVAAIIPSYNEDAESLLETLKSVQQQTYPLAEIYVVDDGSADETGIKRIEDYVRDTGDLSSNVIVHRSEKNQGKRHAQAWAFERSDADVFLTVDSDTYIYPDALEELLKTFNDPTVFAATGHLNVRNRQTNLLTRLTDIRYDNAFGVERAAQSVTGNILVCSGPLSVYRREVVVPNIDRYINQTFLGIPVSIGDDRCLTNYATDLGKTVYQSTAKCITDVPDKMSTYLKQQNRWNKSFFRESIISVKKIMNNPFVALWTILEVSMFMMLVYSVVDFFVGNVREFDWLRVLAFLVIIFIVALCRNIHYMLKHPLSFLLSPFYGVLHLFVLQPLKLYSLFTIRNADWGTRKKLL
MEASURE NAME: pKi
Scale: negative log10 of molar concentration, which is what pKi denotes.

query: Please report the measured pKi for O=c1ccn([C@@H]2O[C@H](COP(=O)(O)OP(=O)(O)O)[C@@H](O)[C@H]2O)c(=O)[nH]1 [UDP]
result: 4.61
